Each entry below carries its recorded IC50.
target_desc: PKA (Homo sapiens, UniProt P17612)
protocol_notes: PKA kinase inhibition, Z'-LYTE FRET assay
Type: biochemical
cond: 100 μM ATP

As a guide, the following entries are already answered.
{"columns": ["item_smiles", "IC50"],
 "data": [
  ["COc1cc2ncc3c(N)nc(-c4cncc(OC[C@@H](N)CN5CCOCC5)c4)cc3c2cc1OC", "> 2000 nM"],
  ["COc1cc2ncc3c(N)nc(-c4cncc(O[C@H]5CCCNC5)c4)cc3c2cc1OC", "> 2000 nM"],
  ["COc1cc2ncc3c(N)nc(-c4cncc(C#CCN(C)Cc5ccccc5)c4)cc3c2cc1OC", "> 2000 nM"],
  ["COc1cc2ncc3c(N)nc(-c4cncc(OC[C@H]5CCCN5)c4)cc3c2cc1OC", "> 2000 nM"],
  ["COc1cc2ncc3c(N)nc(-c4cncc(OC[C@@H](N)CN5CCNC(=O)C5)c4)cc3c2cc1OC", "> 2000 nM"],
  ["COc1cc2ncc3c(N)nc(-c4cncc(OC[C@@H](N)CN(C)Cc5ccccc5)c4)cc3c2cc1OC", "110 to 217 nM"],
  ["COc1cc2ncc3c(N)nc(-c4cncc(OC[C@@H](N)Cc5ccccc5)c4)cc3c2cc1OC", "146 to 497 nM"],
  ["COc1cc2ncc3c(N)nc(-c4cncc(OC[C@@H](N)Cc5ccc(O)cc5)c4)cc3c2cc1OC", "> 2000 nM"],
  ["COc1cc2ncc3c(N)nc(-c4cncc(OC[C@H](N)CN5Cc6ccccc6C5)c4)cc3c2cc1OC", "> 2000 nM"],
  ["COc1cc2ncc3c(N)nc(-c4cncc(OC[C@@H]5CN(c6cccc(F)c6)C(=O)N5)c4)cc3c2cc1OC", "> 2000 nM"]
]}

q: Reported IC50, compound COc1cc2c(cc1OCCCl)ncc1c(N)nc(-n3ccnc3)cc12 : ____
a: > 2000 nM

q: Please answer likewise for COc1cc2ncc3c(N)nc(-c4cncc(OC5CCNCC5)c4)cc3c2cc1OC
a: > 2000 nM

q: Try this compound too: COCCOc1cc2ncc3c(N)nc(-c4cccnc4)cc3c2cc1OC
a: > 2000 nM
